The origin of these recorded values is the supplement of paper PMC6288085.

tested on: Caenorhabditis elegans N2; assay: food intake (mean delta OD600 / animal over 72 h) with 50 uM loxapine co-treatment (OD600 units per animal); higher = more food eaten (less suppression of loxapine-induced hyperphagia); conditions: first compound 33 µM, loxapine concentration 50 µM
Structures can show the parent of a compound that is named as a salt.
property-label: food intake
Output spec: single numeric token, no unit.

Sample records with food intake:
compound	experimental-system	food intake
CCc1nc(N)nc(N)c1-c1ccc(Cl)cc1 [pyrimethamine] + CN1CCN(C2=Nc3ccccc3Oc3ccc(Cl)cc32)CC1	Caenorhabditis elegans N2	0.0221
CN1CCCC(n2nc(Cc3ccc(Cl)cc3)c3ccccc3c2=O)CC1 (centres undefined) [azelastine (hydrochloride)] + CN1CCN(C2=Nc3ccccc3Oc3ccc(Cl)cc32)CC1	Caenorhabditis elegans N2	0.0226
Cc1[nH]c(=O)c(C#N)cc1-c1ccncc1 [milrinone] + CN1CCN(C2=Nc3ccccc3Oc3ccc(Cl)cc32)CC1	Caenorhabditis elegans N2	0.0238
Cc1ncc([N+](=O)[O-])n1CC(C)O (centres undefined) [secnidazole] + CN1CCN(C2=Nc3ccccc3Oc3ccc(Cl)cc32)CC1	Caenorhabditis elegans N2	0.0205
CN1CCC[C@H]1c1cccnc1 [L-nicotine] + CN1CCN(C2=Nc3ccccc3Oc3ccc(Cl)cc32)CC1	Caenorhabditis elegans N2	0.0212

The record that follows has no food intake shown yet.
Given the compound CCN(CC)C(=O)c1cccc(C)c1 + CN1CCN(C2=Nc3ccccc3Oc3ccc(Cl)cc32)CC1 , what is its reported food intake? 0.023
